The measurements presented in this section are drawn from patent US20260007758A1.

Reported EC50 by item:
Target: human somatostatin receptor subtype 2 (Homo sapiens, UniProt P30874)
Construct: expressed in transfected cells
Sequence (P30874 whole entry): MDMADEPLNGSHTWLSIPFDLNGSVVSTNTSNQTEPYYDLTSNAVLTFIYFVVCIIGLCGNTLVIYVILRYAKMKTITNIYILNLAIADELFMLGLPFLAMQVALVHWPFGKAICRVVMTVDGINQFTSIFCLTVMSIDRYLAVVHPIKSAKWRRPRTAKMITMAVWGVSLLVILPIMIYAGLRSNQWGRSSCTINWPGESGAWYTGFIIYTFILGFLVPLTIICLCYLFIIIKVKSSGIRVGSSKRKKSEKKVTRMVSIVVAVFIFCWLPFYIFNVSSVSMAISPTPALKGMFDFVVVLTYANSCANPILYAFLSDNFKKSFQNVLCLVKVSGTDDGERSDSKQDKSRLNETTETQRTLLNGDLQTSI
Assay: Functional assay for SSTR2 agonists (HTRF cAMP)
Format: cell-based
Conditions: CHO-K1 cells stably expressing human SST2; NKH477-stimulated cAMP; 20 min at 37 C; read-out: hSST2 cAMP Avg EC50
Number in nM, nothing else.

CC[C@H](C)[C@@H]([C@@H](CC(=O)N1CCC[C@H]1[C@H](OC)[C@@H](C)C(=O)N[C@H](C)[C@@H](O)c1ccccc1)OC)N(C)C(=O)[C@@H](NC(=O)[C@H](C(C)C)N(C)C(=O)OCc1ccc(NC(=O)[C@H](CCCNC(N)=O)NC(=O)[C@@H](NC(=O)CCOCCC(=O)NCCNc2ncc(-c3cc(C)cc(F)c3)c(N3CCC(N)CC3)c2-c2nc3ccc(Cl)cc3[nH]2)C(C)C)c(O[C@H]2[C@H](O)[C@@H](O)[C@H](O)[C@@H](C(=O)N(C)CC(=O)N(C)CC(=O)N(C)CC(=O)O)[C@H]2O)c1)C(C)C	0.14

human somatostatin receptor subtype 2 (Homo sapiens, UniProt P30874) EC50 of "CC[C@H](C)[C@@H]([C@@H](CC(=O)N1CCC[C@H]1[C@H](OC)[C@@H](C)C(=O)N[C@H](C)[C@@H](O)c1ccccc1)OC)N(C)C(=O)[C@@H](NC(=O)[C@H](C(C)C)N(C)C(=O)OCc1ccc(NC(=O)[C@H](CCCNC(N)=O)NC(=O)[C@@H](NC(=O)c2cc(NCCOCCC(=O)NCCNc3ncc(-c4cc(C)cc(F)c4)c(N4CCC(N)CC4)c3-c3nc4ccc(Cl)cc4[nH]3)cc(C(=O)NCC(=O)O)c2)C(C)C)cc1)C(C)C" is 0.19
